- testMethodNotes: Tissue concentration of aprepitant by HPLC after oral or inhaled administration to rabbits
- Assay type: in vivo, New Zealand albino rabbits
- studyConditions: New Zealand White (albino), rabbit, lung, left inferior lobe, inhaled, 0.05 mg/kg/day, Lung concentration of aprepitant LIPI (left inferior lobe), Group 5, inhalation (aerosol, olive oil) 0.05 mg/kg per day, seven days; individual cases

compound: C[C@@H](OC1OCCN(Cc2nc(=O)[nH][nH]2)C1c1ccc(F)cc1)c1cc(C(F)(F)F)cc(C(F)(F)F)c1 (stereo in doubt) [Aprepitant]
concentration at 7 days / ng/g: 1500

---

- testMethodNotes: Tissue concentration of aprepitant by HPLC after oral or inhaled administration to rabbits
- Assay type: in vivo, New Zealand albino rabbits
- studyConditions: New Zealand White (albino), rabbit, lung, right middle lobe, inhaled, 0.05 mg/kg/day, Lung concentration of aprepitant LMPD, Average ± SD of cases, Group 5, inhalation (aerosol, olive oil) 0.05 mg/kg per day, seven days
readoutKind: concentration at 7 days (ng/g)

molecule: C[C@@H](OC1OCCN(Cc2nc(=O)[nH][nH]2)C1c1ccc(F)cc1)c1cc(C(F)(F)F)cc(C(F)(F)F)c1 (stereo in doubt) [Aprepitant]
readoutKind: concentration at 7 days
unitSpec: ng/g
observedValue: 1500

---

- testMethodNotes: Tissue concentration of aprepitant by HPLC after oral or inhaled administration to rabbits
- Assay type: in vivo, New Zealand albino rabbits
- studyConditions: New Zealand White (albino), rabbit, lung, right superior lobe, inhaled, 0.1 mg/kg/day, Lung concentration of aprepitant LSPD (right superior lobe), Group 6, inhalation (aerosol, olive oil) 0.1 mg/kg per day, seven days; individual cases

molecule: C[C@@H](OC1OCCN(Cc2nc(=O)[nH][nH]2)C1c1ccc(F)cc1)c1cc(C(F)(F)F)cc(C(F)(F)F)c1 (stereo in doubt) [Aprepitant]
concentration at 7 days [ng/g]: 2900

---

- testMethodNotes: Tissue concentration of aprepitant by HPLC after oral or inhaled administration to rabbits
- Format: in vivo, New Zealand albino rabbits
- studyConditions: New Zealand White (albino), rabbit, lung, right inferior lobe, po, 100 mg/kg/day, Lung concentration of aprepitant LIPD, Average ± SD of cases, Group 4, oral 100 mg/kg per day, seven days
readoutKind: concentration at 7 days (ng/g)

compound: C[C@@H](OC1OCCN(Cc2nc(=O)[nH][nH]2)C1c1ccc(F)cc1)c1cc(C(F)(F)F)cc(C(F)(F)F)c1 (stereo in doubt) [Aprepitant]
observedValue: 5600

---

- testMethodNotes: Tissue concentration of aprepitant by HPLC after oral or inhaled administration to rabbits
- Format: in vivo, New Zealand albino rabbits
- studyConditions: New Zealand White, rabbit, lung, right inferior lobe, po, 40 mg/kg/day, Lung concentration of aprepitant LIPD (right inferior lobe), Group 2, oral 40 mg/kg per day, seven days; individual cases

compound: C[C@@H](OC1OCCN(Cc2nc(=O)[nH][nH]2)C1c1ccc(F)cc1)c1cc(C(F)(F)F)cc(C(F)(F)F)c1 (stereo in doubt) [Aprepitant]
unitSpec: ng/g
concentration at 7 days: 3300

---

- testMethodNotes: Tissue concentration of aprepitant by HPLC after oral or inhaled administration to rabbits
- Format: in vivo, New Zealand albino rabbits
- studyConditions: New Zealand White, rabbit, lung, right middle lobe, po, 80 mg/kg/day, Lung concentration of aprepitant LMPD, Average ± SD of cases, Group 3, oral 80 mg/kg per day, seven days
- Source text: Herein, New Zealand albino rabbits (New Zealand White Rabbits) with an initial average weight of approximately 3 kg were used. The rabbits were fed ad libitum and were monitored daily to check that signs of toxicity had not appeared. […] The average is the arithmetic average calculated for each row or column of each table. The SD is the standard deviation, calculated for each row or column of each table.

molecule: C[C@@H](OC1OCCN(Cc2nc(=O)[nH][nH]2)C1c1ccc(F)cc1)c1cc(C(F)(F)F)cc(C(F)(F)F)c1 (stereo in doubt) [Aprepitant]
concentration at 7 days / ng/g: 5200

---

- testMethodNotes: in vivo
- Type: in vivo, New Zealand albino rabbits
- studyConditions: New Zealand White (albino), rabbit, in vivo, 0.2 mg/kg/day, Lung concentration of aprepitant, Average ± SD of the five lobes per case
readoutKind: concentration at 7 days (ng/g)

compound: C[C@@H](OC1OCCN(Cc2nc(=O)[nH][nH]2)C1c1ccc(F)cc1)c1cc(C(F)(F)F)cc(C(F)(F)F)c1 (stereo in doubt) [Aprepitant]
observedValue: 6020

---

- testMethodNotes: in vivo
- Assay type: in vivo, New Zealand albino rabbits
- studyConditions: New Zealand White, rabbit, in vivo, po, 10 mg/kg/day, Lung concentration of aprepitant, Average ± SD of the five lobes per case
readoutKind: concentration at 7 days (ng/g)

compound: C[C@@H](OC1OCCN(Cc2nc(=O)[nH][nH]2)C1c1ccc(F)cc1)c1cc(C(F)(F)F)cc(C(F)(F)F)c1 (stereo in doubt) [Aprepitant]
observedValue: 960

---

- testMethodNotes: Tissue concentration of aprepitant by HPLC after oral or inhaled administration to rabbits
- Format: in vivo, New Zealand albino rabbits
- studyConditions: New Zealand White (albino), rabbit, lung, right middle lobe, inhaled, 0.2 mg/kg/day, Lung concentration of aprepitant LMPD (right middle lobe), Group 7, inhalation (aerosol, olive oil) 0.2 mg/kg per day, seven days; individual cases
readoutKind: concentration at 7 days (ng/g)

compound: C[C@@H](OC1OCCN(Cc2nc(=O)[nH][nH]2)C1c1ccc(F)cc1)c1cc(C(F)(F)F)cc(C(F)(F)F)c1 (stereo in doubt) [Aprepitant]
unitSpec: ng/g
observedValue: 6000

---

- testMethodNotes: Tissue concentration of aprepitant by HPLC after oral or inhaled administration to rabbits
- Assay type: in vivo, New Zealand albino rabbits
- studyConditions: New Zealand White, rabbit, lung, left inferior lobe, inhaled, 0.2 mg/kg/day, Lung concentration of aprepitant LIPI, Average ± SD of cases, Group 7, inhalation (aerosol, olive oil) 0.2 mg/kg per day, seven days

compound: C[C@@H](OC1OCCN(Cc2nc(=O)[nH][nH]2)C1c1ccc(F)cc1)c1cc(C(F)(F)F)cc(C(F)(F)F)c1 (stereo in doubt) [Aprepitant]
concentration at 7 days, ng/g: 5900

---

- testMethodNotes: Tissue concentration of aprepitant by HPLC after oral or inhaled administration to rabbits
- Format: in vivo, New Zealand albino rabbits
- studyConditions: New Zealand White, rabbit, lung, right superior lobe, po, 100 mg/kg/day, Lung concentration of aprepitant LSPD (right superior lobe), Group 4, oral 100 mg/kg per day, seven days; individual cases

molecule: C[C@@H](OC1OCCN(Cc2nc(=O)[nH][nH]2)C1c1ccc(F)cc1)c1cc(C(F)(F)F)cc(C(F)(F)F)c1 (stereo in doubt) [Aprepitant]
concentration at 7 days (ng/g): 5100

---

- testMethodNotes: Tissue concentration of aprepitant by HPLC after oral or inhaled administration to rabbits
- Type: in vivo, New Zealand albino rabbits
- studyConditions: New Zealand White, rabbit, lung, right inferior lobe, inhaled, 0.4 mg/kg/day, Lung concentration of aprepitant LIPD (right inferior lobe), Group 8, inhalation (aerosol, olive oil) 0.4 mg/kg per day, seven days; individual cases

molecule: C[C@@H](OC1OCCN(Cc2nc(=O)[nH][nH]2)C1c1ccc(F)cc1)c1cc(C(F)(F)F)cc(C(F)(F)F)c1 (stereo in doubt) [Aprepitant]
unitSpec: ng/g
concentration at 7 days: 9900

---

- testMethodNotes: in vivo
- Assay type: in vivo, New Zealand albino rabbits
- studyConditions: New Zealand White (albino), rabbit, in vivo, 0.05 mg/kg/day, Lung concentration of aprepitant, Average ± SD of the five lobes per case

compound: C[C@@H](OC1OCCN(Cc2nc(=O)[nH][nH]2)C1c1ccc(F)cc1)c1cc(C(F)(F)F)cc(C(F)(F)F)c1 (stereo in doubt) [Aprepitant]
concentration at 7 days: 1400 ng/g

---

- testMethodNotes: Tissue concentration of aprepitant by HPLC after oral or inhaled administration to rabbits
- Type: in vivo, New Zealand albino rabbits
- studyConditions: New Zealand White, rabbit, lung, right inferior lobe, po, 10 mg/kg/day, Lung concentration of aprepitant LIPD (right inferior lobe), Group 1, oral 10 mg/kg per day, seven days; individual cases

compound: C[C@@H](OC1OCCN(Cc2nc(=O)[nH][nH]2)C1c1ccc(F)cc1)c1cc(C(F)(F)F)cc(C(F)(F)F)c1 (stereo in doubt) [Aprepitant]
unitSpec: ng/g
concentration at 7 days: 600

---

- testMethodNotes: Tissue concentration of aprepitant by HPLC after oral or inhaled administration to rabbits
- Assay type: in vivo, New Zealand albino rabbits
- studyConditions: New Zealand White, rabbit, lung, left superior lobe, po, 80 mg/kg/day, Lung concentration of aprepitant LSPI, Average ± SD of cases, Group 3, oral 80 mg/kg per day, seven days

compound: C[C@@H](OC1OCCN(Cc2nc(=O)[nH][nH]2)C1c1ccc(F)cc1)c1cc(C(F)(F)F)cc(C(F)(F)F)c1 (stereo in doubt) [Aprepitant]
concentration at 7 days (ng/g): 4700

Measured values drawn from patent US20170290774A1 for this set.
